Molecular target: LAO.1
Experiment: Isothermal titration calorimetry of the purified protein with its cognate ligand at 25 °C in SEC running buffer (25 mM sodium phosphate, 500 mM NaCl, pH 7.4), fitted with a one-site binding model.
Conditions: SD, n = 3
Description: Ligands were dissolved in the specific buffer that was used in the size-exclusion chromatography (SEC) run of each protein purification (stored at −20 °C and thawed on the day of use). All protein and ligand samples were degassed and the temperature equilibrated to 25 °C for at least 10 min using a degassing station (TA Instruments). […]
quantity-name: Kd

mol-smiles: NCCCC[C@H](N)C(=O)O
experimental-result: 2500 nM

====

Molecular target: TphC.4
Experiment: Isothermal titration calorimetry of the purified protein with its cognate ligand at 25 °C in SEC running buffer (25 mM sodium phosphate, 500 mM NaCl, pH 7.4), fitted with a one-site binding model.
Settings: SD, n = 3
Experimental: Ligands were dissolved in the specific buffer that was used in the size-exclusion chromatography (SEC) run of each protein purification (stored at −20 °C and thawed on the day of use). All protein and ligand samples were degassed and the temperature equilibrated to 25 °C for at least 10 min using a degassing station (TA Instruments). […]
pKd: −log10 of the molar value.

mol-smiles: O=C(O)c1ccc(C(=O)O)cc1
pKd: 6.55

====

biological target: TphC.3; assay: Isothermal titration calorimetry of the purified protein with its cognate ligand at 25 °C in SEC running buffer (25 mM sodium phosphate, 500 mM NaCl, pH 7.4), fitted with a one-site binding model.; conditions: SD, n = 3
pKd: −log10 of the molar value.

compound: O=C(O)c1ccc(C(=O)O)cc1 [terephthalic acid]
pKd: 6.15

====

molecular target: TphC.0; test: Isothermal titration calorimetry of the purified protein with its cognate ligand at 25 °C in SEC running buffer (25 mM sodium phosphate, 500 mM NaCl, pH 7.4), fitted with a one-site binding model.; settings: SD, n = 3

mol-smiles: O=C(O)c1ccc(C(=O)O)cc1
Kd, nM: 1180
